Just for reference, patent US20060275329A1 is where these values come from.

test system: TcOYE; assay: Inhibition of the PGH2-F2α reductase activity of TcOYE; format: biochemical, Trypanosoma cruzi; conditions: FIG. 9
READOUT_KIND: Inhibition of the PGH2-F2α reducing activity of TcOYE

{"columns": ["COMPOUND", "VALUE_MEASURED"],
 "data": [
  ["CC1=CC(=O)c2ccccc2C1=O", "weak"],
  ["O=[N+]([O-])c1cc[n+]([O-])c2ccccc12 [4-nitroquinoline-N-oxide]", "weak"],
  ["CC1(C)CCC2=C(O1)c1ccccc1C(=O)C2=O", "weak"]
]}
